Assay system HDAC1 (Homo sapiens (Human)); read-out recorded as pIC50.
pIC50: −log10 of the molar value.
ASSAY_READOUT: pIC50

* CCCNNC(=O)c1ccc(CNC(=O)/C=C/c2cccnc2)cc1 | 7.60
* Nc1ccccc1NC(=O)CCCCCCCNC(=O)/C=C/c1cccnc1 | 6.83
* CCCNNC(=O)c1ccc(CNC(=O)c2cc3ccccc3[nH]2)cc1 | 8.45
* CCCNNC(=O)c1ccc(CNC(=O)c2cc3cnccc3o2)cc1 | 7.99
* CCCNNC(=O)c1ccc(CNC(=O)c2cc3ccccc3o2)cc1 | 8.52
* CCCNNC(=O)c1ccc(CNC(=O)/C=C/c2ccncc2)cc1 | 7.90
* CCCNNC(=O)c1ccc(CNC(=O)c2cc3ccccc3s2)cc1 | 8.42
* CCCNNC(=O)c1ccc(CNC(=O)c2cc3cnccc3s2)cc1 | 8.00
* CCCNNC(=O)c1ccc(CNC(=O)/C=C/c2ccccn2)cc1 | 7.88
* CCCNNC(=O)c1ccc(CNC(=O)/C=C/c2ccccc2)cc1 [Comparative example 1 LP411/3b, reference compound] | 7.93
* CCCNNC(=O)CCCCCCCNC(=O)/C=C/c1cccnc1 | 6.62
* CCCNNC(=O)c1ccc(CNC(=O)CCCCCCCNC(=O)/C=C/c2cccnc2)cc1 | 7.75
* CCCNNC(=O)c1ccc(CNC(=O)c2cc3ccncc3[nH]2)cc1 | 8.09
